// provenance: ChEMBL document CHEMBL1201862

Each entry below carries its reported GI50.
# System: XF498
# experiment_notes: NCI tumour cell line growth inhibition, 48 h
Activity calls are given as the source filed them. No stated cut-off is given here; in the data, active = GI50 up to about 1.1 µM and inactive = higher.

Here's what some known entries look like.
CC1CC(c2cccc3c2OCO3)=Nc2ccccc2S1 (stereo not given) | > 100 µM (inactive)
COC(=O)C(C(=O)C(=O)Nc1ccc(C)cc1)c1nc2ccc([N+](=O)[O-])cc2nc1O (stereo not given) | > 100 µM (inactive)

GI50 recorded for this compound, CC(=O)OC1CCn2nnc(COC(=O)NC(C)C)c21 (stereo not given) , is > 100 µM (inactive)

Looking up O=C1C=CC(=O)c2c1c1c(c3c2C2c4ccccc4C3c3ccccc32)C2c3ccccc3C1c1ccccc12 , I found its GI50 recorded as 1.75 µM (inactive)

Note to self: GI50 recorded for COc1cc(C2C(Cl)C(=O)N2NC(=O)c2ccc(N)cc2)cc(Br)c1O (stereo not given) was 17 µM (inactive)
